- ASSAY NOTES: amyloid nucleation score (Sup35N fusion, yeast selection) (log enrichment); library NNK3; higher = more nucleation; inactive = no reads after selection;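 further: zero at mode of non-aggregating sequences after 7 days selection at 30°C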
RECORDED METRIC: amyloid nucleation score

Q: Given the entry DSGLCV , report its measured amyloid nucleation score.
A: inactive

Q: Given the entry RHSILVSYFHWWFRDWKPFW , report its measured amyloid nucleation score.
A: inactive

Q: Given the entry QCPKCDLLMRDSDIRFTHAG , report its measured amyloid nucleation score.
A: inactive

Q: Given the entry VIRDQQIIVKCCNLVSICGI , report its measured amyloid nucleation score.
A: 1.32

###

- ASSAY NOTES: amyloid nucleation score (Sup35N fusion, yeast selection) (log enrichment); library NNK2; higher = more nucleation; inactive = no reads after selection
Please use 1 whenever amyloid nucleation score is not below -0.03, and -1 whenever it is.

Here are 3 substances together with their reported answers.
Q: For this substance, is measured amyloid nucleation score -0.03 or higher? HFYCMV
A: 1

Q: For this substance, is measured amyloid nucleation score -0.03 or higher? SSLGIRNCVGTSYVMSPIIV
A: 1

Q: For this substance, is measured amyloid nucleation score -0.03 or higher? MLIIKVLCSMCIVIFLTLIC
A: 1

Others:
Q: For this substance, is measured amyloid nucleation score -0.03 or higher? TPDVLGLRHYRLTIVTYH
A: 1

Q: For this substance, is measured amyloid nucleation score -0.03 or higher? FCVIAQYAQVPMSCWGWLES
A: -1

Q: For this substance, is measured amyloid nucleation score -0.03 or higher? NLWFSHDITYHYTYFDRSRA
A: 1

Q: For this substance, is measured amyloid nucleation score -0.03 or higher? RYMCGRGHRCF
A: 1

Q: For this substance, is measured amyloid nucleation score -0.03 or higher? IGVYSVWNFMMVRSADARFN
A: 1

Q: For this substance, is measured amyloid nucleation score -0.03 or higher? YLWDTEDYMRMWAKRWEKAR
A: 1

Q: For this substance, is measured amyloid nucleation score -0.03 or higher? TIRSCVNF
A: 1

###

- ASSAY NOTES: amyloid nucleation score (Sup35N fusion, yeast selection) (log enrichment); library NNK1; higher = more nucleation; inactive = no reads after selection
Class field: derived from amyloid nucleation score; ranges class 1: < -0.4; class 2: ≥ -0.4 and < 0.4; class 3: ≥ 0.4

Q: Which category fits this record: VLLVGVSDESRSRSPQGMSP
A: class 2

Q: Which category fits this record: TYLFSTVGVSGSSMSQVYIV
A: class 2

Q: Which category fits this record: SMVAPRPANVRVRLVGRGST
A: class 2

Q: Which category fits this record: TSAASLVERNLFLVSFFIIW
A: class 2

Consider the record given below.
Q: Which category fits this record: GLMSLYRQSSSLNRKAGWLT
A: class 3

###

- ASSAY NOTES: amyloid nucleation score (Sup35N fusion, yeast selection) (log enrichment); library NNK1; higher = more nucleation; inactive = no reads after selection
Class field: derived from amyloid nucleation score; ranges lower band = under -0.02, central band = from -0.02 up to 0.6, upper band = 0.6 and over

Here are 8 substances together with their reported answers.
Q: Which category fits this record: KVLNFNLSRACLLWDSFNSV
A: upper band

Q: Which category fits this record: AIVELLSWSQVTCALWGSIT
A: central band

Q: Which category fits this record: RCGLWV
A: lower band

Q: Which category fits this record: FCNNATSTQGNVFSGLLWTL
A: lower band

Q: Which category fits this record: CLVVVISS
A: lower band

Q: Which category fits this record: GGTWPYTAVRWVIWRLWGEG
A: central band

Q: Which category fits this record: DRLVGWVVWLHVVFPRMYVL
A: central band

Q: Which category fits this record: FAHTLGA
A: central band

Others:
Q: Which category fits this record: SIRTLQDNSTSSENFKVESV
A: central band

Q: Which category fits this record: PFCGTFVCGVGLWIRVNCNR
A: upper band

Q: Which category fits this record: WSTCLCGYCCVI
A: upper band

Q: Which category fits this record: VTRLLTLPWHCRRIYLVNLY
A: lower band

###

- ASSAY NOTES: amyloid nucleation score (Sup35N fusion, yeast selection) (log enrichment); library NNK2; higher = more nucleation; inactive = no reads after selection
RECORDED METRIC: amyloid nucleation score

Q: Given the entry RLDGSG , report its measured amyloid nucleation score.
A: 0.587

Q: Given the entry ERNCISYHKGIFDNNEC , report its measured amyloid nucleation score.
A: inactive

Q: Given the entry ATYPVSATGSGELWVDRGQE , report its measured amyloid nucleation score.
A: 0.603

Q: Given the entry VAVISDWGWQNWMSVVGVGH , report its measured amyloid nucleation score.
A: inactive

Q: Given the entry FFTGFDLVPVSYI , report its measured amyloid nucleation score.
A: inactive

Others:
Q: Given the entry VGYFLSPMTVQLN , report its measured amyloid nucleation score.
A: inactive

Q: Given the entry MSQFGHVCSRAYFLRDDQAN , report its measured amyloid nucleation score.
A: inactive

Q: Given the entry DVLVSILITPRCHHA , report its measured amyloid nucleation score.
A: inactive

###

- ASSAY NOTES: amyloid nucleation score (Sup35N fusion, yeast selection) (log enrichment); library NNK1; higher = more nucleation; inactive = no reads after selection
Please use Fulfilled whenever amyloid nucleation score is not below -0.3, and Not fulfilled whenever it is.

Q: For this sequence, is measured amyloid nucleation score -0.3 or higher? APNFLMCNRPGIF
A: Fulfilled

Q: For this sequence, is measured amyloid nucleation score -0.3 or higher? CIGWSNGAPRCNQGRQRDRG
A: Fulfilled

Q: For this sequence, is measured amyloid nucleation score -0.3 or higher? NVRALILIKNCSPQMLRNEF
A: Fulfilled

Others:
Q: For this sequence, is measured amyloid nucleation score -0.3 or higher? SYGSVCNDNQSNRRYVHIHM
A: Fulfilled

Q: For this sequence, is measured amyloid nucleation score -0.3 or higher? MRACRYANLNVSRNMWGICG
A: Fulfilled

Q: For this sequence, is measured amyloid nucleation score -0.3 or higher? RPMYHGYHMH
A: Fulfilled

Q: For this sequence, is measured amyloid nucleation score -0.3 or higher? WDFDYSMCVLYMVTAIRLWR
A: Fulfilled

Q: For this sequence, is measured amyloid nucleation score -0.3 or higher? APNTEMGFEGLRELQVLPVV
A: Not fulfilled

Q: For this sequence, is measured amyloid nucleation score -0.3 or higher? PYSWVEKASY
A: Not fulfilled

Q: For this sequence, is measured amyloid nucleation score -0.3 or higher? GTIENFHGVTN
A: Fulfilled

Q: For this sequence, is measured amyloid nucleation score -0.3 or higher? LVNGTMFINPCYVQGRCKEM
A: Fulfilled

Q: For this sequence, is measured amyloid nucleation score -0.3 or higher? GAYLLPLSIWNLGPSNGR
A: Fulfilled

Q: For this sequence, is measured amyloid nucleation score -0.3 or higher? GSVDQSMC
A: Fulfilled

###

- ASSAY NOTES: amyloid nucleation score (Sup35N fusion, yeast selection) (log enrichment); library NNK3; higher = more nucleation; inactive = no reads after selection
RECORDED METRIC: amyloid nucleation score

Below, each entry is followed by its recorded amyloid nucleation score result.
Q: Given the entry LLHHFFAVFDSARETKWDWD , report its measured amyloid nucleation score.
A: 0.247

Q: Given the entry CLSSSETPFSGDRTMA , report its measured amyloid nucleation score.
A: -0.046

Q: Given the entry LSYYVFRYTNTHWSPCFYIE , report its measured amyloid nucleation score.
A: inactive

Q: Given the entry LCIPVDFVGGTIRLCVL , report its measured amyloid nucleation score.
A: inactive

Q: Given the entry ISMSVYFFTIISSQFMFPIR , report its measured amyloid nucleation score.
A: inactive

Q: Given the entry RLDGCM , report its measured amyloid nucleation score.
A: inactive

Q: Given the entry LCWTVVIHVRTAVRIWLTSR , report its measured amyloid nucleation score.
A: inactive

Q: Given the entry FLHDFSILIGMICNQIGITL , report its measured amyloid nucleation score.
A: 1.24

Others:
Q: Given the entry LHVSWGGLSGDTLFTRKVGV , report its measured amyloid nucleation score.
A: inactive

Q: Given the entry WCGVSLVL , report its measured amyloid nucleation score.
A: inactive

Q: Given the entry TFAFYLTILMSMFDRYFTWP , report its measured amyloid nucleation score.
A: inactive

Q: Given the entry NYSRPEL , report its measured amyloid nucleation score.
A: 0.782

###

- ASSAY NOTES: amyloid nucleation score (Sup35N fusion, yeast selection) (log enrichment); library NNK2; higher = more nucleation; inactive = no reads after selection
Please use true whenever amyloid nucleation score is not below 0.5, and false whenever it is.

Here are 4 sequences together with their reported answers.
Q: For this sequence, is measured amyloid nucleation score 0.5 or higher? LVGDLVVGYGMCRKGVVR
A: true

Q: For this sequence, is measured amyloid nucleation score 0.5 or higher? GIYVEEWGHSVPALRWIDKS
A: false

Q: For this sequence, is measured amyloid nucleation score 0.5 or higher? SLIVAIRFTA
A: true

Q: For this sequence, is measured amyloid nucleation score 0.5 or higher? CDRLELRN
A: false

Consider the record given below.
Q: For this sequence, is measured amyloid nucleation score 0.5 or higher? QLNVIDIYTSGWISFP
A: false
